tested on: OVCAR-5 ovarian; test: NCI tumour cell line growth inhibition, 48 h
This section presents compounds with their documented TGI values.
endpoint-label: TGI

>  <compound>
Cc1ccc(S(=O)(=O)OCC23CCC(C4CC42)C2CC23)cc1 (stereo not given)

>  <endpoint-label>
TGI

>  <result>
> 100 µM

$$$$
>  <compound>
CCC(C)/C=C(C)/C=C/C(=O)c1c(O)c(-c2ccc(O)cc2)c[nH]c1=O (stereo not given)

>  <endpoint-label>
TGI

>  <result>
23.5 µM

$$$$
>  <compound>
O=C(N/N=C/c1ccc(O)cc1O)c1ccc(Nc2ccnc(C(F)(F)F)c2)cc1

>  <endpoint-label>
TGI

>  <result>
> 100 µM

$$$$
>  <compound>
NNC(=O)CCCCCCCC(=O)O

>  <endpoint-label>
TGI

>  <result>
> 100 µM

$$$$
>  <compound>
c1ccc2[nH]c(-c3ccc(OCCCCCOc4ccc(-c5nc6ccccc6[nH]5)cc4)cc3)nc2c1

>  <endpoint-label>
TGI

>  <result>
6.75 µM

$$$$
>  <compound>
Nc1ncc(-c2ccc(C(F)(F)F)cc2)c(NC2CCCCCC2)n1

>  <endpoint-label>
TGI

>  <result>
> 100 µM

$$$$
>  <compound>
Cc1ccc(C(=O)N/N=C/c2cccc(Oc3ccccc3)c2)cn1

>  <endpoint-label>
TGI

>  <result>
> 100 µM

$$$$
>  <compound>
COc1ccc(CN=C2Nc3ccncc3S(=O)(=O)N2c2ccccc2)cc1

>  <endpoint-label>
TGI

>  <result>
> 100 µM

$$$$
>  <compound>
O=C(c1ccco1)N1CCN(C(=O)c2ccco2)C1=S

>  <endpoint-label>
TGI

>  <result>
39.8 µM

$$$$
>  <compound>
OCC1CCCCN1Cc1nc2ccc(Cl)cc2[nH]1 (stereo not given)

>  <endpoint-label>
TGI

>  <result>
> 100 µM

$$$$
>  <compound>
O=C1NC2(O)c3ccccc3C(=O)C2(O)N1c1ccccc1 (stereo not given)

>  <endpoint-label>
TGI

>  <result>
> 100 µM

$$$$
>  <compound>
CNC(=O)CNC(=O)CCC(=O)N(C)C

>  <endpoint-label>
TGI

>  <result>
> 100 µM

$$$$
>  <compound>
O=[N+]([O-])/C(C(Cl)=C(Cl)Cl)=C(/Sc1ccccc1)N1CCOCC1

>  <endpoint-label>
TGI

>  <result>
31 µM

$$$$
>  <compound>
C/C(=C1/N=C(c2cc([N+](=O)[O-])ccc2Cl)N(C2=CC=C(Cl)CC2)C1=O)c1cc2ccccc2oc1=O

>  <endpoint-label>
TGI

>  <result>
> 100 µM

$$$$
>  <compound>
CC1OC(OC2C(Oc3cc(O)c4c(=O)cc(-c5ccc(O)cc5)oc4c3)OC(CO)C(O)C2O)C(O)C(O)C1O (stereo not given)

>  <endpoint-label>
TGI

>  <result>
> 100 µM

$$$$

---

tested on: NCI/ADR-RES ovarian; assay: NCI tumour cell line growth inhibition, 48 h
endpoint-label: TGI

>  <molecule>
CNC(=O)CNC(=O)CCC(=O)N(C)C

>  <tested-target>
NCI/ADR-RES ovarian

>  <endpoint-label>
TGI

>  <result>
> 100 µM

$$$$
>  <molecule>
CNC=O

>  <tested-target>
NCI/ADR-RES ovarian

>  <endpoint-label>
TGI

>  <result>
> 10000 µM

$$$$
>  <molecule>
CN(/N=N/c1nc(OCc2ccccc2)c2[nH]cnc2n1)C(=O)N(C)/N=N/c1nc(OCc2ccccc2)c2[nH]cnc2n1

>  <tested-target>
NCI/ADR-RES ovarian

>  <endpoint-label>
TGI

>  <result>
> 100 µM

$$$$
>  <molecule>
CN1CCN(Cc2ccc(NC(=O)c3[nH]ncc3Nc3ncnc4c3CCC4)cc2)CC1

>  <tested-target>
NCI/ADR-RES ovarian

>  <endpoint-label>
TGI

>  <result>
45.1 µM

$$$$
>  <molecule>
COc1cc(/C=C/C(=O)O)ccc1O

>  <tested-target>
NCI/ADR-RES ovarian

>  <endpoint-label>
TGI

>  <result>
> 100 µM

$$$$
>  <molecule>
O=C(/C(Cl)=C/c1ccccc1)c1ccccc1

>  <tested-target>
NCI/ADR-RES ovarian

>  <endpoint-label>
TGI

>  <result>
19.4 µM

$$$$
>  <molecule>
CSCCCNC(=O)c1csc([C@@H](CSC)NC(=O)CCNC(=O)[C@@H](NC(=O)OCC(Br)(Br)Br)C(C)O)n1 (some centres undefined)

>  <tested-target>
NCI/ADR-RES ovarian

>  <endpoint-label>
TGI

>  <result>
> 100 µM

$$$$
>  <molecule>
N#C[C@](CO)(NC(=O)OCc1ccccc1)C(F)F

>  <tested-target>
NCI/ADR-RES ovarian

>  <endpoint-label>
TGI

>  <result>
> 100 µM

$$$$
>  <molecule>
O=C(O)c1ccc(NS(=O)(=O)c2cccc3cccnc23)cc1

>  <tested-target>
NCI/ADR-RES ovarian

>  <endpoint-label>
TGI

>  <result>
> 100 µM

$$$$

---

This section presents compounds with their documented TGI values.
system: HT29 colon; assay: NCI tumour cell line growth inhibition, 48 h
endpoint-label: TGI

>  <compound>
Cc1[nH]n(-c2nc(O)c(C)c(=O)[nH]2)c(=O)c1CCO

>  <tested-target>
HT29 colon

>  <result>
> 100 µM

$$$$
>  <compound>
Cc1c(C(=O)CC(=O)C(=O)Nc2cccc(C(F)(F)F)c2)[n+](=O)c2ccccc2n1[O-]

>  <tested-target>
HT29 colon

>  <result>
17.8 µM

$$$$
>  <compound>
c1ccc(-c2cc(-c3cc(-c4ccccc4)n[nH]3)[nH]n2)cc1

>  <tested-target>
HT29 colon

>  <result>
> 100 µM

$$$$
>  <compound>
O[C@]12CCCC[C@H]1CCC2

>  <tested-target>
HT29 colon

>  <result>
> 100 µM

$$$$
>  <compound>
CCOC(=O)C1(Cc2ccccc2)CCN(C(=O)c2ccccc2)C2C1C2(Cl)Cl (stereo not given)

>  <tested-target>
HT29 colon

>  <result>
34.8 µM

$$$$
>  <compound>
CN1CCN(Cc2ccc(NC(=O)c3[nH]ncc3Nc3ncnc4c3CCC4)cc2)CC1

>  <tested-target>
HT29 colon

>  <result>
8.79 µM

$$$$
>  <compound>
CCc1ccc(CCC(=O)Nc2ncc(Cc3ccccc3)s2)o1

>  <tested-target>
HT29 colon

>  <result>
> 100 µM

$$$$
>  <compound>
Cc1nn2c(/C=C3/C(=O)Nc4ccccc43)c(-c3ccc(Cl)cc3)nc2s1

>  <tested-target>
HT29 colon

>  <result>
27 µM

$$$$
>  <compound>
N#CC1(c2nc3ccccc3o2)C(=O)C(=O)N(c2ccc(Cl)c(Cl)c2)C(=O)C1=O

>  <tested-target>
HT29 colon

>  <result>
> 100 µM

$$$$
>  <compound>
COc1ccc(/C=C(\C#N)c2cc(OC)c3c(c2)OCO3)cc1

>  <tested-target>
HT29 colon

>  <result>
0.694 µM

$$$$
>  <compound>
C=CCN=C1N=C(CC(=O)OCC)CS1

>  <tested-target>
HT29 colon

>  <result>
> 100 µM

$$$$
>  <compound>
O=C(NCCCCNCCCNC(=O)C(F)(F)F)C(F)(F)F

>  <tested-target>
HT29 colon

>  <result>
> 100 µM

$$$$
>  <compound>
COc1cc(/C=C/C(=O)O)ccc1O

>  <tested-target>
HT29 colon

>  <result>
> 100 µM

$$$$
>  <compound>
O=C1NC(N/N=C/C(O)C(O)C(O)C(O)CO)=N/C1=C\c1cccs1 (stereo not given)

>  <tested-target>
HT29 colon

>  <result>
> 100 µM

$$$$
>  <compound>
O=C(c1cc(-c2cc3c(cc2C(=O)N2Cc4ccccc4C[C@H]2CN2CCOCC2)OCO3)n2c1CCCC2)N(c1ccccc1)c1ccc(O)cc1

>  <tested-target>
HT29 colon

>  <result>
> 100 µM

$$$$

---

This section presents compounds with their documented TGI values.
system: HCT-15 colon; test: NCI tumour cell line growth inhibition, 48 h
endpoint-label: TGI

>  <smiles-structure>
CN(C)CC#Cc1cccc(C(=O)c2cnn(-c3ccc(F)cc3)c2N)c1

>  <tested-target>
HCT-15 colon

>  <result>
> 25 µM

$$$$
>  <smiles-structure>
CCOC(=O)C#Cc1ccc(C#CC(=O)OCC)cc1

>  <tested-target>
HCT-15 colon

>  <result>
> 20.2 µM

$$$$
>  <smiles-structure>
c1ccc2[nH]c(-c3ccc(OCCCCCOc4ccc(-c5nc6ccccc6[nH]5)cc4)cc3)nc2c1

>  <tested-target>
HCT-15 colon

>  <result>
8.11 µM

$$$$

---

tested on: HS 578T breast; assay: NCI tumour cell line growth inhibition, 48 h
This section presents molecules with their documented TGI values.

>  <molecule>
CCO[C@H]1C[C@@H](c2ccccc2)[C@]2(C)C[C@H](C(=O)OC)ON2O1

>  <TGI>
> 100 µM

$$$$
>  <molecule>
CC(=O)NC1CCC(NC(=O)OC(C)(C)C)C(NC(=O)OC(C)(C)C)C1 (stereo not given)

>  <TGI>
> 100 µM

$$$$
>  <molecule>
OCC1CCCCN1Cc1nc2ccc(Cl)cc2[nH]1 (stereo not given)

>  <TGI>
> 100 µM

$$$$
>  <molecule>
O=c1[nH]nc2c3c(cccc13)NC(CN1Cc3ccccc3C1)=N2

>  <TGI>
> 100 µM

$$$$
>  <molecule>
CCOC(=O)CC[C@@H](NC(=O)c1ccc(NCc2ccc3nc(OC)c(OC)nc3c2)cc1)C(=O)OCC

>  <TGI>
> 80.9 µM

$$$$
